Origin of the recorded values: patent US12281122B1

Attribute: pIC50
test system: T47D (PI3Kα-H1047R) cell line; assay: HTRF phospho-AKT(S473) cell assay in T47D cells; assay type: cell-based, human; conditions: Homo sapiens; HTRF phospho-AKT(S473), T47D (PI3Kα-H1047R) cells, 2 hours compound incubation
pIC50: −log10 of the molar value.

Please review the following examples before continuing.
SMILES ENTRY: Cc1cc([C@@H](C)Nc2ccc(Cl)nc2C(=O)NS(C)(=O)=O)c2nc(N3CCN(c4ncccc4F)CC3)n(C)c(=O)c2c1
TARGET DESC: T47D (PI3Kα-H1047R) cell line
RESULT TYPE: pIC50
REPORTED: 6.30 to 6.60
--
SMILES ENTRY: Cc1cc([C@@H](C)Nc2ccc(Cl)nc2C(=O)NS(C)(=O)=O)c2nc(N3CCC4(CCc5cn(C)nc54)CC3)n(C)c(=O)c2c1
TARGET DESC: T47D (PI3Kα-H1047R) cell line
RESULT TYPE: pIC50
REPORTED: 6.30 to 6.60
--
SMILES ENTRY: Cc1cc([C@@H](C)Nc2ccc(Cl)nc2C(=O)NS(C)(=O)=O)c2nc(N3CCC(C4=NN(C)C(=O)C4(F)F)CC3)n(C)c(=O)c2c1
TARGET DESC: T47D (PI3Kα-H1047R) cell line
RESULT TYPE: pIC50
REPORTED: 6.30 to 6.60
--
SMILES ENTRY: Cc1cc([C@@H](C)Nc2ccc(Cl)nc2C(=O)NS(C)(=O)=O)c2nc(N3CCC(n4cc(C)nn4)CC3)n(C)c(=O)c2c1
TARGET DESC: T47D (PI3Kα-H1047R) cell line
RESULT TYPE: pIC50
REPORTED: > 6.60
--
SMILES ENTRY: Cc1cc([C@@H](C)Nc2ccc(Cl)nc2C(=O)NS(C)(=O)=O)c2nc(N3CCN(c4nn(C)cc4F)CC3)n(C)c(=O)c2c1
TARGET DESC: T47D (PI3Kα-H1047R) cell line
RESULT TYPE: pIC50
REPORTED: > 6.60

Now take the following molecule into account.
Requested field: pIC50. Item: `[2H]C([2H])([2H])n1ncc(F)c1C1CCN(c2nc3c([C@@H](C)Nc4ccc(Cl)nc4C(=O)NS(C)(=O)=O)cc(C)cc3c(=O)n2C)CC1` 6.00 to 6.30
